Quick reference for EC50 among some compounds
Test system: Plasmodium falciparum
Test: Antimalarial activity against chloroquine-resistant Plasmodium falciparum W2 infected type A+ human erythrocytes by [3H]hypoxanthine uptake
Type: functional
Conditions: read-out: ED50 (the source's name)
Respond with the bare value in µg/mL.

Solved entries (count: 5):
>>> obs_value("COc1ccc2cc1Oc1ccc(cc1)C[C@H]1c3cc(c(OC)cc3CCN1C)Oc1c(O)c(OC)cc3c1[C@@H](C2)N(C)CC3")
0.078
>>> obs_value("COc1ccc2cc1Oc1ccc(cc1)C[C@@H]1c3cc(c(OC)cc3CCN1C)Oc1c(O)c(OC)cc3c1[C@@H](C2)N(C)CC3")
0.164
>>> obs_value("C=C[C@H]1CN2CC[C@H]1C[C@H]2[C@H](O)c1ccnc2ccc(OC)cc12 [QUININE]")
0.0308
>>> obs_value("COc1ccc2cc1Oc1ccc(cc1)C[C@H]1c3cc(c(OC)cc3CCN1C)Oc1c(OC)c(OC)cc3c1[C@H](C2)N(C)CC3 [FANCHININ]")
0.16
>>> obs_value("COc1ccc2cc1Oc1ccc(cc1)C[C@H]1c3c(cc(OC)c(O)c3Oc3cc4c(cc3OC)CCN(C)[C@@H]4C2)CCN1C [HOMOAROMOLINE]")
0.451

Now let's try a different one.
Record summary for COc1ccc2cc1Oc1ccc(cc1)C[C@H]1c3c(cc(OC)c(O)c3Oc3cc4c(cc3OC)CCN(C)[C@H]4C2)CCN1C : reported EC50 = 0.0406

Data origin, for the record: ChEMBL document CHEMBL1147330
